# emission maximum annotations
Test: solvent given as SMILES
Conditions: in CC(C)=O
The answer is to be given in nm; state only the numeric part.

c1ccc(-c2nc(-c3ccc(-c4ccc(N(c5ccccc5)c5ccccc5)cc4)cn3)oc2-c2ccccc2)cc1
495
COc1nc(Nc2ccc3c4c(cccc24)C(=O)c2ccccc2-3)nc(OC)n1
533.9
CN(C)CCN(Cc1c2ccccc2c(CN(CCN(C)C)c2ccc([N+](=O)[O-])cc2[N+](=O)[O-])c2ccccc12)c1ccc([N+](=O)[O-])cc1[N+](=O)[O-]
387

For COc1cnc(-c2cc[n+](C3=C(F)C(F)(F)C(F)(F)[C-]3F)cc2)s1 the molecule record lists emission maximum as 474

For c1csc(-c2cnc(-c3cccs3)c3nonc23)c1 the molecule record lists emission maximum as 612

For O=P(c1ccccc1)(c1ccccc1)n1c2ccccc2c2cc(-n3c4ccccc4c4cc(-n5c6ccccc6c6ccccc65)ccc43)ccc21 the molecule record lists emission maximum as 374

For O=c1oc2ccccc2cc1-c1nc2ccccc2o1 the molecule record lists emission maximum as 444

For c1ccc(-c2nc(-c3ccc(-c4nc(-c5ccccc5)c(-c5ccccc5)[nH]4)cc3)[nH]c2-c2ccccc2)cc1 the molecule record lists emission maximum as 420
